- EXPERIMENT SUMMARY: ionization constants (spectrophotometric titrations)
- RUN PARAMETERS: aqueous, pKa ±0.1, upper (acidic) value; deprotonation to the monoanion
Provide the reported pKa of each item.

Q: Give the reported value of pKa for this record: O=c1c2nc[nH]c2[nH]c2nccn12 [1,N^2-ethenoguanine, 5,9-dihydro-9-oximidazo{1,2-a}purine]
Ans: ~9.5

Q: Give the reported value of pKa for this record: COc1nc2nccn2c2[nH]cnc12 [N^2,3-etheno-O^6-methylguanine]
Ans: ~9

Q: Give the reported value of pKa for this record: O=c1c2ncn([C@@H]3O[C@H](CO)[C@@H](O)[C@H]3O)c2nc2[nH]ccn12 [1,N^2-ethenoguanosine]
Ans: 8.8

Q: Give the reported value of pKa for this record: O=c1[nH]c2c(ncn2[C@@H]2O[C@H](CO)[C@@H](O)[C@H]2O)c2nccn12 [N9-riboside (5), 1,N^6-etheno-N9-β-D-ribosylisoguanosine]
Ans: 7.1

Q: Give the reported value of pKa for this record: O=c1nc2[nH]ccn2c2nc[nH]c12 [N^2,3-ethenoguanine]
Ans: 8.8

----------
- EXPERIMENT SUMMARY: ionization constants (spectrophotometric titrations)
- RUN PARAMETERS: aqueous, pKa ±0.1, lower (basic) value; protonation to the cation
Provide the reported pKa of each item.

Q: Give the reported value of pKa for this record: O=c1[nH]c2c(ncn2[C@@H]2O[C@H](CO)[C@@H](O)[C@H]2O)c2nccn12 [N9-riboside (5), 1,N^6-etheno-N9-β-D-ribosylisoguanosine]
Ans: 2.4

Q: Give the reported value of pKa for this record: `O=c1nc2[nH]ccn2c2nc[nH]c12`
Ans: ~2.5

Q: Give the reported value of pKa for this record: O=c1c2nc[nH]c2[nH]c2nccn12 [1,N^2-ethenoguanine, 5,9-dihydro-9-oximidazo{1,2-a}purine]
Ans: ~2

Q: Give the reported value of pKa for this record: `COc1nc2nccn2c2[nH]cnc12`
Ans: ~3.5

----------
- TARGET UNDER TEST: E. coli PNP (Escherichia coli, UniProt P0ABP8)
- Construct: made in house; host or cells: E. coli
- Sequence (P0ABP8 2-239): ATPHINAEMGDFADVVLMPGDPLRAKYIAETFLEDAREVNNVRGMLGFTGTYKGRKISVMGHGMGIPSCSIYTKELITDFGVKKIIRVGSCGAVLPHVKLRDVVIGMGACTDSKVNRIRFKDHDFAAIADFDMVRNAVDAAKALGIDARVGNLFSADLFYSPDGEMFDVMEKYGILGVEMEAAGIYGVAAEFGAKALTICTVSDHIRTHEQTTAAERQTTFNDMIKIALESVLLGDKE
- EXPERIMENT SUMMARY: inhibition of guanine ribosylation catalyzed by E. coli PNP
- Assay type: biochemical
- RUN PARAMETERS: guanine as substrate of the ribosylation reaction; possibly competitive inhibition; read-out: estimated Ki
OBSERVABLE: Ki (µM)
Response body: numeric value in µM, unit text excluded.

Q: Give the reported value of Ki for this record: `O=c1nc2[nH]ccn2c2nc[nH]c12`
Ans: 38
